Values from ChEMBL document CHEMBL4800726

- System Tested: 5-hydroxytryptamine receptor 1E (Homo sapiens, UniProt P28566)
- Sequence (P28566 whole entry): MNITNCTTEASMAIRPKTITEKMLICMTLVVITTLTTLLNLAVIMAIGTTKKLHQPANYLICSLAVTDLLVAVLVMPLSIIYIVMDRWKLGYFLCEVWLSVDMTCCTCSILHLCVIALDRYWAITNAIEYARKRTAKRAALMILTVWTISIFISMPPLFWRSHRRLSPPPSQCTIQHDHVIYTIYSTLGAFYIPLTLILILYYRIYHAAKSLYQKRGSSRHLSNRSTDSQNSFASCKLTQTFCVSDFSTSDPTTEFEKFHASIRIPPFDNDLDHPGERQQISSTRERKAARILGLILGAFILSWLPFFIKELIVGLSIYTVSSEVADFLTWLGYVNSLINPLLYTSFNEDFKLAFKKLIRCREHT
Test Readout: Ki

1. CCOc1ccc(S(=O)(=O)Nc2ccc(Cl)cc2C#Cc2cnc(C(=O)O)cc2OC)c2ncccc12 [MSC-4381] :: > 10 µM

====

- System Tested: L-type Ca2+ channel (dihydropyridine site) (Rattus norvegicus, UniProt P22002+P27732+Q02485)
- Procedure Summary: Ca2+ channel (L, dihydropyridine site) Eurofins-Cerep binding assay
- Assay type: protein assay
- Set-up: incubation time 90 min, incubation temperature RT, ligand concentration 0.1 nM
- Experimental Setup: rat cerebral cortex, probe [3H]nitrendipine, compound concentration 10 uM, read-out: % Inhibition of Control Specific Binding (Mean n=2)
Test Readout: inhibition at 90 min, 10 µM

1) CCOc1ccc(S(=O)(=O)Nc2ccc(Cl)cc2C#Cc2cnc(C(=O)O)cc2OC)c2ncccc12 :: -11%

====

- System Tested: L-type Ca2+ channel (verapamil site, phenylalkylamine) (Rattus norvegicus, UniProt P22002+P27732+Q02485)
- Procedure Summary: Ca2+ channel (L, verapamil site) (phenylalkylamine) Eurofins-Cerep binding assay
- Format: protein assay
- Set-up: incubation time 120 min, incubation temperature RT, ligand concentration 3 nM
- Experimental Setup: rat cerebral cortex, probe [3H]D888, compound concentration 10 uM, read-out: % Inhibition of Control Specific Binding (Mean n=2)
Test Readout: inhibition at 120 min, 10 µM (%)

1. CCOc1ccc(S(=O)(=O)Nc2ccc(Cl)cc2C#Cc2cnc(C(=O)O)cc2OC)c2ncccc12 :: -9.8

====

- Procedure Summary: GPCRScan assay: inhibition of GABA/PBR
- Design: species or system Rattus norvegicus; radioligand conc. used [nm] 0.3 – 2.0, parental cells brain tissue
pKi: −log10 of the molar value.
Test Readout: pKi

1. COc1cc(C(=O)O)ncc1C#Cc1ccccc1NS(=O)(=O)c1cccc2c(N(C)C)ccnc12 [MSC-0516] :: 6.13

====

- System Tested: Na+ channel (site 2) (Rattus norvegicus, UniProt F1LQQ7+O08562+O88420+O88457+P04774+P04775+P08104+P15389+P15390+Q62968)
- Procedure Summary: Na+ channel (site 2) Eurofins-Cerep binding assay
- Assay type: protein assay
- Set-up: incubation time 60 min, incubation temperature 37°C, ligand concentration 10 nM
- Experimental Setup: rat cerebral cortex, probe [3H]batrachotoxin, compound concentration 10 uM, read-out: % Inhibition of Control Specific Binding (Mean n=2)
Test Readout: inhibition at 60 min, 10 µM (%)

1. CCOc1ccc(S(=O)(=O)Nc2ccc(Cl)cc2C#Cc2cnc(C(=O)O)cc2OC)c2ncccc12 :: -4.9
